- experimental.system: T1, plasma-derived human activated protein C (APC) (UniProt P04070 43-461)
- T1 chain: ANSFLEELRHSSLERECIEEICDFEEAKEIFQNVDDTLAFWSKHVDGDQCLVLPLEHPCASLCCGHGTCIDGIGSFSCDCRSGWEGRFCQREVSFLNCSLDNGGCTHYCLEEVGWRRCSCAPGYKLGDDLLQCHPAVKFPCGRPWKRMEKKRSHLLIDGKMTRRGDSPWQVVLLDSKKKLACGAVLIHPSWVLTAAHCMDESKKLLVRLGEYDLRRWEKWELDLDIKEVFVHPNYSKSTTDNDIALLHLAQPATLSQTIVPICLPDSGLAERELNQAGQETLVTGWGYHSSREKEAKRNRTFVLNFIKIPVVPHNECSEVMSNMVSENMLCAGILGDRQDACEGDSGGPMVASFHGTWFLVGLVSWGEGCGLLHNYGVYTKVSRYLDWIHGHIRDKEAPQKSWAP
- protocol: SPR; head prints nM; kd/ka gives M
metric: pKd
Answers are plain numbers, as −log10 of the molar value.

binder	pKd
TPP-29858 (antibody, V domains shown) VH: EVQLVESGGGLVQPGGSLRLSCAASGFTFSNYYMNWVRQAPGKGLEWVSYISSSSSTIYYADSVKGRFTISRDDSKNSLYLQMNSLKTEDTAVYYCAREGDYFDYWGQGTLVTVSS VL: EIVLTQSPGTLSLSPGERATLSCRASQSVSSFGATFMHWYQQKPGQPPKLLIYLARNRASGVPDRFSGSGSGTDFTLKISRVEAEDVGVYYCQQNNEDPYTFGQGTKLEIKR	7.60
TPP-29854 (antibody, V domains shown) VH: EVQLVESGGGLVQPGGSLRLSCAASGFTFSNYYMNWVRQAPGKGLEWVSYISSSSSTIYYADSVKGRFTISRDDSKNSLYLQMNSLKTEDTAVYYCAREGDYFDYWGQGTLVTVSS VL: EIVLTQSPGTLSLSPGERATLSCRASQSVSSFGATFMHWYQQKPGQPPKLLIYLKSNRASGVPDRFSGSGSGTDFTLKISRVEAEDVGVYYCQQNNEDPYTFGQGTKLEIKR	7.60

--- query ---
IN: Return pKd for the following binder: TPP-26922 (antibody, V domains shown) VH: EVQLVESGGGLVQPGGSLRLSCAASGFTFSNYYMSWVRQAPGKGLEWVGDIRLKSNNYEKHYAESVKGRFTISRDDSKNSLYLQMNSLKTEDTAVYYCAREGDYFDYWGQGTLVTVSS VL: EIVLTQSPGTLSLSPGERATLSCRASQSVSSFGATFMHWYQQKPGQPPKLLIYLASNRASGVPDRFSGSGSGTDFTLKISRVEAEDVGVYYCQQNNEDPYTFGQGTKLEIKR
OUT: 7.04
